tested on: Escherichia coli IAI1; test: fold change of Putrescine concentration vs plate DMSO controls (fold change (ratio)); higher = more amine produced, active = hit call of the paper (significant change in both replicates, either direction); conditions: incubation time: 27 h, anaerobic, 37 °C;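 for the amine columns active = adjusted P below 0.05 in both replicates with a change the same way and a mean fold change under 0.8 or over 1.25; inactive = the rest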
Structures can show the parent of a compound that is named as a salt.
One label from this list, please: active, inactive

For O=C(Oc1ccccc1)n1c(C(F)(F)F)nc2cc(Cl)c(Cl)cc21 (20 µM) , what call appears in the results of this test?
active

For NC[C@@H]1O[C@H](O[C@H]2[C@@H](O)[C@H](O[C@@H]3[C@@H](O)[C@H](N)C[C@H](N)[C@H]3O[C@H]3O[C@H](CO)[C@@H](O)[C@H](O)[C@H]3N)O[C@@H]2CO)[C@H](N)[C@@H](O)[C@@H]1O [Paromomycin sulfate] (20 µM) , what call appears in the results of this test?
inactive

For Nc1c2ccccc2nc2ccccc12 [Aminacrine] (20 µM) , what call appears in the results of this test?
inactive

For CO[C@H]1/C=C/O[C@@]2(C)Oc3c(C)c(O)c4c(O)c(c(/C=N/N5CCN(C)CC5)c(O)c4c3C2=O)NC(=O)/C(C)=C\C=C\[C@H](C)[C@H](O)[C@@H](C)[C@@H](O)[C@@H](C)[C@H](OC(C)=O)[C@@H]1C [Rifampicin] (20 µM) , what call appears in the results of this test?
active
